Tested on: OVCAR-3
Assay: Growth inhibition of human OVCAR-3 cells after 48 hrs
Type: functional
Conditions: OVCAR-3, 48 h
Field: GI50. Provide a value for each of the molecules that follow.
The answer is to be given in µM; state only the numeric part.

What value of GI50 has been recorded for this entry: Cn1c2ccccc2c2c(=O)n(CCCC(=O)NCC(=O)N(C(=O)NC3CCCCC3)C3CCCCC3)c3c(-c4ccccc4)nnn3c21 19.5

Any idea what its GI50 is? The molecule is Cn1c2ccccc2c2c(=O)n(CCCC(=O)NCCc3c[nH]cn3)c3c(-c4ccccc4)nnn3c21 8.32

Could you tell me which GI50 is on file for CCCCN(CCCC)CCCn1c(=O)c2c3ccccc3n(C)c2n2nnc(-c3ccccc3)c12 ? 49

What GI50 value was documented for this molecule, CCOC(=O)CNC(=O)CCCn1c(=O)c2c3ccccc3n(C)c2n2nnc(-c3ccccc3)c12 ? 12.6

====

Field: log10 GI50. Provide a value for each of the molecules that follow.
System: MCF7
Test: Growth inhibition of human MCF7 cells after 48 hrs
Assay type: functional
Details: MCF7, 48 h
Reminder: these figures are log10 of reported GI50, in µM before transformation.

Look up log10 GI50 for this molecule: Cn1c2ccccc2c2c(=O)n(CCCC(=O)NCC(=O)N(C(=O)NC3CCCCC3)C3CCCCC3)c3c(-c4ccccc4)nnn3c21 0.56

Quick one: log10 GI50 for CCOC(=O)CNC(=O)CCCn1c(=O)c2c3ccccc3n(C)c2n2nnc(-c3ccccc3)c12 ? 1.50

Dear colleague, I am looking for the recorded log10 GI50 of the following molecule: Cn1c2ccccc2c2c(=O)n(CCCC(=O)NCCc3c[nH]cn3)c3c(-c4ccccc4)nnn3c21 1.11

Query (molecule): CCCCN(CCCC)CCCn1c(=O)c2c3ccccc3n(C)c2n2nnc(-c3ccccc3)c12 ; field requested: log10 GI50 1.57

For Cn1c2ccccc2c2c(=O)n(CCCC(=O)N(C(=O)NC3CCCCC3)C3CCCCC3)c3c(-c4ccccc4)nnn3c21 , what is its reported log10 GI50? 1.81

====

System: NCI-H322M
Test: Growth inhibition of human NCI-H322M cells after 48 hrs
Format: functional
observedProperty: GI50

Value lookup for GI50; key = Cn1c2ccccc2c2c(=O)n(CCCC(=O)N(C(=O)NC3CCCCC3)C3CCCCC3)c3c(-c4ccccc4)nnn3c21 > 100 µM

Reported GI50 for CCCCN(CCCC)CCCn1c(=O)c2c3ccccc3n(C)c2n2nnc(-c3ccccc3)c12 : what is it? 28.8 µM

Could you tell me which GI50 is on file for Cn1c2ccccc2c2c(=O)n(CCCC(=O)NCCc3c[nH]cn3)c3c(-c4ccccc4)nnn3c21 ? 11 µM

For the compound CCOC(=O)CNC(=O)CCCn1c(=O)c2c3ccccc3n(C)c2n2nnc(-c3ccccc3)c12 , what GI50 is on record? > 50.1 µM

For the compound shown here, Cn1c2ccccc2c2c(=O)n(CCCC(=O)NCC(=O)N(C(=O)NC3CCCCC3)C3CCCCC3)c3c(-c4ccccc4)nnn3c21 , give the reported GI50. > 100 µM

Which GI50 reading was recorded for the compound COC(=O)C(Cc1c[nH]cn1)NC(=O)CNC(=O)CCCn1c(=O)c2c3ccccc3n(C)c2n2nnc(-c3ccccc3)c12 (stereo unspecified) ? > 100 µM

====

Test system: COLO 205
Assay: Growth inhibition of human COLO205 cells after 48 hrs
Type: functional
Conditions: COLO 205, 48 h
observedProperty: GI50 (µM)
// units = µM; emit number, no label

Query: GI50; subject: CCCCN(CCCC)CCCn1c(=O)c2c3ccccc3n(C)c2n2nnc(-c3ccccc3)c12 5.01

Entry under review: Cn1c2ccccc2c2c(=O)n(CCCC(=O)NCC(=O)N(C(=O)NC3CCCCC3)C3CCCCC3)c3c(-c4ccccc4)nnn3c21 . Reported GI50? 2.82

Please give the measured GI50 for this molecule: Cn1c2ccccc2c2c(=O)n(CCCC(=O)NCCc3c[nH]cn3)c3c(-c4ccccc4)nnn3c21 8.51

====

System: U-251
Test: Growth inhibition of human U251 cells after 48 hrs
Format: functional
Conditions: U-251, 48 h
observedProperty: GI50 (µM)
Respond numerically; units are µM and should not be typed.

Test system U-251; read-out GI50; what value for Cn1c2ccccc2c2c(=O)n(CCCC(=O)NCCc3c[nH]cn3)c3c(-c4ccccc4)nnn3c21 ? 9.55

Given the entry CCOC(=O)CNC(=O)CCCn1c(=O)c2c3ccccc3n(C)c2n2nnc(-c3ccccc3)c12 , what GI50 was observed with U-251? 4.17

Form field - read-out: GI50; system: U-251; submitted item: Cn1c2ccccc2c2c(=O)n(CCCC(=O)NCC(=O)N(C(=O)NC3CCCCC3)C3CCCCC3)c3c(-c4ccccc4)nnn3c21 12.3

Enter reported GI50 observed with U-251 for CCCCN(CCCC)CCCn1c(=O)c2c3ccccc3n(C)c2n2nnc(-c3ccccc3)c12 33.1

====

Tested on: U-251
Experiment: Growth inhibition of human U251 cells after 48 hrs
Format: functional
Settings: U-251, 48 h, read-out: pTGI (converted)
Provide the recorded TGI for the entries that follow.
Dear colleague, please return just the value in µM, with no unit written.

For Cn1c2ccccc2c2c(=O)n(CCCC(=O)NCCc3c[nH]cn3)c3c(-c4ccccc4)nnn3c21 , what is its reported TGI? 18.6

Which TGI value belongs to CCOC(=O)CNC(=O)CCCn1c(=O)c2c3ccccc3n(C)c2n2nnc(-c3ccccc3)c12 ? 14.5

TGI lookup needed for Cn1c2ccccc2c2c(=O)n(CCCC(=O)NCC(=O)N(C(=O)NC3CCCCC3)C3CCCCC3)c3c(-c4ccccc4)nnn3c21 , thanks. 38

====

For each of the molecules below, state its GI50.
System: HOP-92
Test: Growth inhibition of human HOP92 cells after 48 hrs
Format: functional
Conditions: HOP-92, 48 h
// return numeric value only (unit: µM, not printed)

Looking for the measured GI50 of Cn1c2ccccc2c2c(=O)n(CCCC(=O)NCCc3c[nH]cn3)c3c(-c4ccccc4)nnn3c21 , can you help? 1.35

Given the entry CCCCN(CCCC)CCCn1c(=O)c2c3ccccc3n(C)c2n2nnc(-c3ccccc3)c12 , report its measured GI50. 18.6

====

Test: Growth inhibition of human HS578T cells after 48 hrs
Assay type: functional
Conditions: Hs-578T, read-out: pTGI (converted)
observedProperty: TGI

Please report the recorded TGI for Cn1c2ccccc2c2c(=O)n(CCCC(=O)NCCc3c[nH]cn3)c3c(-c4ccccc4)nnn3c21 . 22.4 µM

Need TGI, item Cn1c2ccccc2c2c(=O)n(CCCC(=O)NCC(=O)N(C(=O)NC3CCCCC3)C3CCCCC3)c3c(-c4ccccc4)nnn3c21 > 100 µM

// query TGI value for entry CCOC(=O)CNC(=O)CCCn1c(=O)c2c3ccccc3n(C)c2n2nnc(-c3ccccc3)c12 > 50.1 µM

Bench note: what TGI did CCCCN(CCCC)CCCn1c(=O)c2c3ccccc3n(C)c2n2nnc(-c3ccccc3)c12 show? > 100 µM

====

Would you mind telling me the reported GI50 of each entry?
Test system: MDA-MB-435
Test: Growth inhibition of human MDA-MB435 cells after 48 hrs
Format: functional
Settings: MDA-MB-435, 48 h
Write the answer as a number in µM, unit excluded.

I would be grateful if you could share the reported GI50 for Cn1c2ccccc2c2c(=O)n(CCCC(=O)NCCc3c[nH]cn3)c3c(-c4ccccc4)nnn3c21 . 10.2

What measured GI50 goes with Cn1c2ccccc2c2c(=O)n(CCCC(=O)NCC(=O)N(C(=O)NC3CCCCC3)C3CCCCC3)c3c(-c4ccccc4)nnn3c21 ? 25.1

====

Tested on: SK-MEL-5
Assay: Growth inhibition of human SK-MEL5 cells after 48 hrs
Format: functional
Conditions: SK-MEL-5, 48 h
Kindly state GI50 for each of the entries shown.
Give the quantity in µM, number only.

Entry CCCCN(CCCC)CCCn1c(=O)c2c3ccccc3n(C)c2n2nnc(-c3ccccc3)c12 has what GI50? 31.6

Which GI50 reading was recorded for the molecule Cn1c2ccccc2c2c(=O)n(CCCC(=O)NCC(=O)N(C(=O)NC3CCCCC3)C3CCCCC3)c3c(-c4ccccc4)nnn3c21 ? 6.03

Entry Cn1c2ccccc2c2c(=O)n(CCCC(=O)NCCc3c[nH]cn3)c3c(-c4ccccc4)nnn3c21 : reported GI50 = ? 9.12

====

Tested on: SK-OV-3
Assay: Growth inhibition of human SKOV3 cells after 48 hrs
Type: functional
Details: SK-OV-3, 48 h, read-out: pTGI (converted)
What TGI was measured for each of the following?
// units = µM; emit number, no label

Query (compound): Cn1c2ccccc2c2c(=O)n(CCCC(=O)NCC(=O)N(C(=O)NC3CCCCC3)C3CCCCC3)c3c(-c4ccccc4)nnn3c21 ; field requested: TGI 18.6

Need TGI of CCOC(=O)CNC(=O)CCCn1c(=O)c2c3ccccc3n(C)c2n2nnc(-c3ccccc3)c12 , thanks. 43.7

Quick one: TGI of Cn1c2ccccc2c2c(=O)n(CCCC(=O)NCCc3c[nH]cn3)c3c(-c4ccccc4)nnn3c21 ? 18.6

Quick check: TGI of CCCCN(CCCC)CCCn1c(=O)c2c3ccccc3n(C)c2n2nnc(-c3ccccc3)c12 ? 30.2
